# Test system: DLD-1
# Assay explanation: NCI tumour cell line growth inhibition, 48 h
Calls of active or inactive are those of the source. Cut-off read from the data, not from the text of the source: active = GI50 up to about 1.1 µM and inactive = higher.
Below, each entry is listed alongside its reported GI50.
Endpoint name: GI50

Cn1nc(-c2ccccc2)c2c(/C=C/c3ccccc3)onc2c1=O = 78.9 µM (inactive)
O=C1c2cnccc2Cc2cccc3c2N1c1ccccc1S3 = 29.2 µM (inactive)
COC/C=C\COC = > 100 µM (inactive)
CCC1NC(/N=N/c2ccc([N+](=O)[O-])cc2)(P(=O)(OC(C)C)OC(C)C)OC1=O (stereo not drawn) = > 100 µM (inactive)
COc1cc(C2=NN(C)C(c3ccc([N+](=O)[O-])o3)C2)cc(OC)c1OC (stereo not drawn) = 48.4 µM (inactive)
C/C(=N\O)c1sc(-n2nc(-c3ccccc3)cc2-c2ccccc2)nc1C = 11.5 µM (inactive)
O=C(O)CN(CC(=O)O)Cc1cc(C#Cc2ccc(C#Cc3ccccc3)cc2)cc(CN(CC(=O)O)CC(=O)O)n1 = 8.53 µM (inactive)
COc1cc(C)c(C)c(OC(=O)c2c(C)c(C)c(OC)c(C)c2OC)c1C = 7.31 µM (inactive)
NCCNCc1c2ccccc2c(CNCCN)c2ccccc12 = 53.1 µM (inactive)
O=S(=O)(C1=CC(S(=O)(=O)c2ccccc2)COC1)c1ccccc1 (stereo not drawn) = > 100 µM (inactive)
O=S(O)CCCCCSSc1ccccc1 = 54.8 µM (inactive)
N#CC1=C(c2ccccc2)C(O)(c2ccccc2)NC1=O (stereo not drawn) = 71.3 µM (inactive)
Cc1cc(N(CCC#N)CCC#N)ccc1/N=N/c1ccccc1[N+](=O)[O-] = > 100 µM (inactive)
COc1nc(NC2OCC(O)C(O)C2O)c(NC2OCC(O)C(O)C2O)c(=O)n1C (stereo not drawn) = > 100 µM (inactive)
CCOC(=O)N[C@@H]1C2CC(=O)C(O2)[C@@H]1OC (stereo partly drawn) = > 100 µM (inactive)
CC(C)OP(=O)(OC(C)C)/C(=N/Nc1ccc([N+](=O)[O-])cc1)NCCN/C(=N\Nc1ccc([N+](=O)[O-])cc1)P(=O)(OC(C)C)OC(C)C = 4.71 µM (inactive)
OCC1CC2C=CCC(C2)C1 (stereo not drawn) = > 100 µM (inactive)
COc1cc(/C=C\c2ccc(SC)cc2)cc(OC)c1OC = 0.0409 µM (active)
c1ccc2c(c1)C1CCCCCC21N1CCOCC1 (stereo not drawn) = 84.5 µM (inactive)
COc1cc(CC(C(=O)O)C(=O)O)c(OC)cc1CC(C(=O)O)C(=O)O = > 100 µM (inactive)
CSc1nc(NC2OCC(O)C(O)C2O)c(N)c(=O)n1C (stereo not drawn) = > 100 µM (inactive)
COC12CCC(=O)C=C1c1ccccc1N2C(C)=O (stereo not drawn) = > 100 µM (inactive)
O=C1c2c(nc3ccccc3c2-c2ccccc2)CN1Nc1ccccc1 = > 100 µM (inactive)
COc1cc2c(cc1OC)C(CC1=C(c3ccccc3)CN3CCc4cc(OC)c(OC)cc4C3C1)NCC2 (stereo not drawn) = 19.1 µM (inactive)
COc1cc(C(=O)N2CCc3c([nH]c4c([N+](=O)[O-])c(OC)ccc34)C2C)cc(OC)c1OC (stereo not drawn) = > 100 µM (inactive)
CCCCCCCCCc1cc(=O)c2ccc(O)cc2o1 = > 100 µM (inactive)
Cc1ccc(Nc2nc(C)c(C(/C=C/c3ccc(/C=C/C(=N/NC(=O)C[n+]4ccccc4)c4sc(Nc5ccc(C)cc5[N+](=O)[O-])nc4C)cc3)=N\NC(=O)C[n+]3ccccc3)s2)c([N+](=O)[O-])c1 = 71.3 µM (inactive)
CCOC(=O)C1(Br)C(c2ccccc2)NC(=O)N(C2OC(COC(=O)c3ccccc3)C(OC(=O)c3ccccc3)C2OC(=O)c2ccccc2)C1(C)Br (stereo not drawn) = 36.4 µM (inactive)
Cc1nc2c(ccc3ncccc32)[nH]1 = > 100 µM (inactive)
O=C1OC(c2ccccc2)=N/C1=C/C=C/c1ccco1 = > 100 µM (inactive)
COCN(C)c1nc(N(C)C)nc(N(C)C)n1 = > 100 µM (inactive)
C=CCC12CC(=O)CCC1c1ccc(OC)cc1C2=O (stereo not drawn) = > 100 µM (inactive)
CCSc1nc2sc(C)c(C)c2c(=O)n1-c1ccc(C(=O)O)cc1 = 43.2 µM (inactive)
Cc1cccc(C)c1N1C(=O)C(=O)C(c2nc3ccccc3s2)/C(=N/c2cccc3c(=O)[nH][nH]c(=O)c23)C1=O (stereo not drawn) = > 100 µM (inactive)
Cc1ccc(NC(=O)C(=O)C(C#N)c2nc(-c3ccc(-c4ccccc4)cc3)cs2)c(C)c1 (stereo not drawn) = > 100 µM (inactive)
COc1ccc2nc(NC(=O)C(=O)NNC(=O)c3ccncc3)sc2c1 = > 100 µM (inactive)
CCCCN(C)CC(C(C)=O)C(c1ccccc1)c1c(O)c2ccccc2oc1=O (stereo not drawn) = > 100 µM (inactive)
Cc1cccc(C)c1NC(=O)C(=O)CC(=O)CO = > 100 µM (inactive)
